Recorded IC50 for the following compounds
# tested.on: UniProt P22303
property.name: IC50 (µM)

compound	property.name	unit.descriptor	observed.measurement
COc1ccc(C2C(c3ccccc3)NC3(C(=O)Nc4ccc([N+](=O)[O-])cc43)C23Cc2cc(OC)c(OC)cc2C3=O)cc1OC (centres undefined)	IC50	µM	15.4
COc1cc2c(cc1OC)C(=O)C1(C2)C(c2ccccc2Cl)C(c2ccccc2)NC12C(=O)Nc1ccc(Cl)cc12 (centres undefined)	IC50	µM	12.2
COc1cc2c(cc1OC)C(=O)C1(C2)C(c2ccccc2Cl)CN(C)C12C(=O)Nc1ccc(Cl)cc12 (centres undefined)	IC50	µM	6.6
COc1cc2c(cc1OC)C(=O)C1(C2)C(c2ccccc2Cl)C(c2ccccc2)NC12C(=O)Nc1ccccc12 (centres undefined)	IC50	µM	7.3

* * *

# tested.on: Acetylcholinesterase (Homo sapiens)
# Sequence (P22303 whole entry): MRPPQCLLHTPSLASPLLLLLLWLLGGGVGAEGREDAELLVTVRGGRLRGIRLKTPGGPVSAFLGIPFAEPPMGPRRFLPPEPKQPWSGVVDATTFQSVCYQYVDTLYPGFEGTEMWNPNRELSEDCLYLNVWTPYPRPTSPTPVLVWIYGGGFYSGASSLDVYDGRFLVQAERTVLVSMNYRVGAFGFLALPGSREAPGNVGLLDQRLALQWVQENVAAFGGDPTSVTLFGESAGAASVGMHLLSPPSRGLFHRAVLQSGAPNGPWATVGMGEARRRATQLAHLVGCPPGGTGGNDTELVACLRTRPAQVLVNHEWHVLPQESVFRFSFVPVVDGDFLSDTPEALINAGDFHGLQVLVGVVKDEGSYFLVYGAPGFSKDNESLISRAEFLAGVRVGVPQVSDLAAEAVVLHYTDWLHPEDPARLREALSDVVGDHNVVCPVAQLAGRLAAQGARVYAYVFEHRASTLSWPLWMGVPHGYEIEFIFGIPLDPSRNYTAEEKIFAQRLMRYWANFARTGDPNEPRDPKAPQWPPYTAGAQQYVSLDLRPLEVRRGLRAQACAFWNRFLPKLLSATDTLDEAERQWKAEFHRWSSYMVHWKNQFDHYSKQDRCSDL
# IC50 per record follows
property.name: IC50 (µM)

compound	observed.measurement
COc1cc2c(cc1OC)C(=O)C1(C2)C(c2ccc(F)cc2)C(c2ccccc2)NC12C(=O)Nc1ccccc12 (stereo not drawn)	6.86
COc1cc2c(cc1OC)C(=O)C1(C2)C(c2ccc(F)cc2)C(c2ccccc2)NC12C(=O)Nc1ccc([N+](=O)[O-])cc12 (stereo not drawn)	14.3
COc1cc2c(cc1OC)C(=O)C1(C2)C(c2ccccc2)C(c2ccccc2)NC12C(=O)Nc1ccccc12 (stereo not drawn)	5.12
COc1cc2c(cc1OC)C(=O)C1(C2)C(c2ccccc2)CN(C)C12C(=O)Nc1ccc(Cl)cc12 (stereo not drawn)	11.2
COc1ccc(C2C(c3ccccc3)NC3(C(=O)Nc4ccc(Cl)cc43)C23Cc2cc(OC)c(OC)cc2C3=O)cc1OC (stereo not drawn)	8.26
COc1cc2c(cc1OC)C(=O)C1(C2)C(c2ccccc2Cl)CN(C)C12C(=O)Nc1ccc([N+](=O)[O-])cc12 (stereo not drawn)	7.6
COc1cc2c(cc1OC)C(=O)C1(C2)C(c2ccc(F)cc2)CN(C)C12C(=O)Nc1ccc(Cl)cc12 (stereo not drawn)	3.7
COc1cc2c(cc1OC)C(=O)C1(C2)C(c2ccccc2Cl)C(c2ccccc2)NC12C(=O)Nc1ccc([N+](=O)[O-])cc12 (stereo not drawn)	4.2

* * *

# tested.on: UniProt P22303

compound	IC50 / µM
COc1ccc(C2CN(C)C3(C(=O)Nc4ccccc43)C23Cc2cc(OC)c(OC)cc2C3=O)cc1OC (stereo not drawn)	4.2
COc1ccc(C2CN(C)C3(C(=O)Nc4ccc([N+](=O)[O-])cc43)C23Cc2cc(OC)c(OC)cc2C3=O)cc1OC (stereo not drawn)	6.1
COc1ccc(C2CN(C)C3(C(=O)Nc4ccc(Cl)cc43)C23Cc2cc(OC)c(OC)cc2C3=O)cc1OC (stereo not drawn)	4.2
COc1cc2c(cc1OC)C(=O)C1(C2)C(c2ccccc2Cl)CN(C)C12C(=O)Nc1ccccc12 (stereo not drawn)	4.3
COc1cc2c(cc1OC)C(=O)C1(C2)C(c2ccccc2)C(c2ccccc2)NC12C(=O)Nc1ccc(Cl)cc12 (stereo not drawn)	7.26
COc1cc2c(cc1OC)C(=O)C1(C2)C(c2ccc(F)cc2)C(c2ccccc2)NC12C(=O)Nc1ccc(Cl)cc12 (stereo not drawn)	9.86
COc1cc2c(cc1OC)C(=O)C1(C2)C(c2ccccc2)CN(C)C12C(=O)Nc1ccccc12 (stereo not drawn)	3.12
COc1ccc(C2C(c3ccccc3)NC3(C(=O)Nc4ccccc43)C23Cc2cc(OC)c(OC)cc2C3=O)cc1OC (stereo not drawn)	5.2
